Cited source for all entries: PubChem BioAssay (NCI)

Recorded TGI, one value per entry.
Test system: EKVX NSCLC
Assay: NCI tumour cell line growth inhibition, 48 h

Compound	Assay result
CC1(C)OCC(C2CCC3(C)C4=CCC5C(C)(C)C(O)CCC5(C)C4CCC23C)CC(O)C1O (stereo not given)	28.5 µM
COc1ccc(-c2cc(=O)c3c(O)c(OC)c(O)c(OC)c3o2)cc1OC	> 100 µM
Cc1ccc(S(=O)(=O)NC(CCC(=O)NN)C(=O)NN)cc1 (stereo not given)	> 100 µM
CN1C(NN)=NS(=O)(=O)c2ccccc21	> 100 µM
O=c1[nH]c(=O)n(C2OC(CO)C(N(O)Cc3ccc(F)cc3)C2O)cc1Br (stereo not given)	> 100 µM
COc1c(CC(=O)c2ccccc2)c2ccccc2n1C(C)=O	> 100 µM

### Prompt Fill: TGI (EKVX NSCLC) for this compound O=C1OCC2=C1C(c1cccc(F)c1)c1cc3c(cc1N2CCO)CCC3 (stereo not given)
### Response > 50 µM

### Prompt Fill: TGI (EKVX NSCLC) for this compound NC(N)=NS(=O)(=O)c1ccc(NC(=O)c2cccc3c(NNc4ccc(C(=O)O)cc4)c4ccccc4nc23)cc1
### Response > 100 µM

### Prompt Fill: TGI (EKVX NSCLC) for this compound Nc1nc(N)nc(-c2ccccc2NS(=O)(=O)c2ccc([N+](=O)[O-])cc2)n1
### Response > 100 µM

### Prompt Fill: TGI (EKVX NSCLC) for this compound C[C@]12CCC3c4ccc(O)cc4CC[C@H]3C1CC(=O)N(CCN1CCCC1)C2=O (stereo not given in full)
### Response > 10 µM

====

Recorded TGI, one value per entry.
System: SR leukemia
Assay: NCI tumour cell line growth inhibition, 48 h

Molecule	TGI
Cc1cc2c(cc1C)N1C(Cl)=C3CCCCC3=C(C#N)C1N2 (stereo not drawn)	> 100 µM
CCN1CCN(c2cc(C)nc(N(CCCNc3ccnc4cc(Cl)ccc34)Cc3cccs3)n2)CC1	3.23 µM

### Prompt Identify measured TGI corresponding to CC(C)(O)c1coc(S(=O)(=O)/N=C(\O)Nc2c3c(cc4c2CCC4)CCC3)c1
### Response > 100 µM

### Prompt Identify measured TGI corresponding to CC(C)(C)c1[nH]nc2c1C(c1cc3ccccc3[nH]c1=O)Nc1cc(C(=O)Nc3ccc(Cl)cc3)ccc1N2 (stereo not drawn)
### Response > 24.9 µM

### Prompt Identify measured TGI corresponding to O=C1/C(=C\c2ccc(Br)cc2)CN(C(=O)c2ccccc2F)C/C1=C\c1ccc(Br)cc1
### Response 3.2 µM

### Prompt Identify measured TGI corresponding to c1cc(N2CCCC2)c2nc(-c3[nH]ncc3Nc3ncnc4[nH]ccc34)[nH]c2c1
### Response 26.7 µM

### Prompt Identify measured TGI corresponding to CC1(C)CCC(S(=O)(=O)c2ccc3c(c2)/C(=N\O)c2cc(S(=O)(=O)N4CCN(c5ccc(F)cc5O)CC4)ccc2-3)CC1
### Response 0.0802 µM

### Prompt Identify measured TGI corresponding to Cc1cc(S(=O)(=O)Nc2nc(N)nc(N(C)C)n2)c(S)cc1Cl
### Response > 10 µM

### Prompt Identify measured TGI corresponding to CN(C)CCNC(=O)c1ccc(Cl)c2c(Nc3ccc(S(=O)(=O)N=C(N)N)cc3)c3ccccc3nc12
### Response 9.06 µM

### Prompt Identify measured TGI corresponding to S=C(Nc1c2c(nc3ccccc13)CCCC2)Nc1c2c(nc3ccccc13)CCCC2
### Response > 100 µM

### Prompt Identify measured TGI corresponding to COc1cc2c(cc1OC)C(=O)/C(=C/c1ccccc1)CC2
### Response > 100 µM
